Hello, the source for this data is the Human Domainome abundance scans (Beltran et al. 2025), in case you need it.

B1: Gamma-crystallin S, residues 96 to 176; numbered along this chain, P22914 (parent)
chain: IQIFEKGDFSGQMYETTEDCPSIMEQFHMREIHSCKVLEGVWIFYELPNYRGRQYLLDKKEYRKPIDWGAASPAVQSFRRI

Variants of: B1
Assay Name: abundance fitness (aPCA) (normalised: wild type 0, dead -1); higher = more abundant; growth selection in yeast, the domain comes from the species named
Assay Conditions: Homo sapiens
Values of abundance fitness greater than or equal to -0.04 map to Met; values below map to Not met.

> print(dat)
    mutation.label  qualitative.label
 1            L57Q            Not met
 2             F4P            Not met
 3            D67Q                Met
 4            A71P                Met
 5            I66Y            Not met
 6             F9R            Not met
 7            R53V                Met
 8             E5P                Met
 9            Y45A            Not met
10            E18L                Met
11            L56K            Not met
12            E15D            Not met
13            S10T            Not met
14             F4H                Met
15            R30I            Not met
16            P73H                Met
17            R63V            Not met
18            V37C                Met
19            G40C            Not met
20            E15I            Not met
21            T17E            Not met
22            H28F                Met
23            R51P            Not met
24            R30W                Met
25            F78P            Not met
26            T16A                Met
27            D67Y            Not met
28            Q54S                Met
29            N49E                Met
30            K36D                Met
31            I81D                Met
32            Y45N            Not met
33            Q54F            Not met
34            R80C                Met
35             F4T            Not met
36            V37Q            Not met
37            L56C            Not met
38            K36I            Not met
39            S34K            Not met
40            M13P                Met
41            R53T                Met
42            M29Q                Met
43            P48G            Not met
44            R30E                Met
45            D67R                Met
46            S10E                Met
